Taken from patent US20130012436A1.

TESTED ON: T1, human IL-23 (human, UniProt Q9NPF7 20-189; P29460 23-328)
T1 construct: also called hIL-23; human recombinant IL-23
T1 sequence (looked up) 1: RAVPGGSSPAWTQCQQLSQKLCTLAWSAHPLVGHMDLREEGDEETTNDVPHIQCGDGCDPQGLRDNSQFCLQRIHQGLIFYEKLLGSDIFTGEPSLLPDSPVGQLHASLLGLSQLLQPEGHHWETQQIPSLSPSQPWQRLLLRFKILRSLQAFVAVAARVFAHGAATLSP
T1 sequence (looked up) 2: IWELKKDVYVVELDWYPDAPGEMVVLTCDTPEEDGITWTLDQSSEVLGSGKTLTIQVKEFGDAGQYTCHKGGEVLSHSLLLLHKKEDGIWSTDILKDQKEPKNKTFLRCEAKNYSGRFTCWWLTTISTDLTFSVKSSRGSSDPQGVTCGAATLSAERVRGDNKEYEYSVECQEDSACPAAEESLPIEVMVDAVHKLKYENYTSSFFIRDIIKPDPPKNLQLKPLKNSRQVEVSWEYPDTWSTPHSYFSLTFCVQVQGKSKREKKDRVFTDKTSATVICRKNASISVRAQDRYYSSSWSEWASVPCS
ASSAY COMMENT: SPR, Adnectin captured by anti-His mAb, IL-23 injected

| BINDER | koff |
| --- | --- |
| 1571G06 (designed binder, captured by anti-His mAb) MGVSDVPRDLEVVAATPTSLLISWGHYPLHLRYYRITYGETGGNSPVQEFTVPRTKYTATISGLKPGVDYTITVYAVTYYKEADYSQIPISINYRTEIDKPSQHHHHHH | 0.000238 s⁻¹ |
| 1486B05 (designed binder, captured by anti-His mAb) MGVSDVPRDLEVVAATPTSLLISWGHYPMHVRYYRITYGETGGNSPVQEFTVPSRIYTATISGLKPGVDYTITVYAVTYYNEADYSQIPISINYRTEIDKPSQHHHHHH | 0.000381 s⁻¹ |
| 1490H05 (designed binder, captured by anti-His mAb) MGVSDVPRDLEVVAATPTSLLISWGHYPLHVRYYRITYGETGGNSPVQEFTVPMRQHTATISGLKPGVDYTITVYAVTYYAQENYKEIPISINYRTEIDKPSQHHHHHH | 0.000322 s⁻¹ |
| 1550A07 (designed binder, captured by anti-His mAb) MGVSDVPRDLEVVAATPTSLLISWGHYPMHVRYYRITYGETGGNSPVQEFTVPVPRYTATISGLKPGVDYTITVYAVTYYAQENYKEIPISINYRTEIDKPSQHHHHHH | 0.000133 s⁻¹ |
